B1: MGC27345 (parent)
chain: KYMPHLCQDSSGEVSCQCQLHPPR

- Variants of: B1
- procedure_details: protein stability index of a GFP-peptide fusion (GPS, HEK-293T) (PSI 1-6); higher = more stable;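 also: lentivirally expressed fusions sorted by FACS into six bins by GFP to DsRed ratio, PSI derived from sequencing read proportions per bin multiplied by bin number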
- condition_details: c terminus: a fixed tail appended
Parameter threshold = 2. Response is condition met when protein stability index meets or exceeds it, else condition not met.

L20M    condition met
L6D    condition met
E13F    condition not met
G12D    condition met
H21A    condition met
S10A    condition met
P4L    condition not met
Q17I    condition not met
L6P    condition not met
S11H    condition met

**Q:** Hi, just wondering whether S11A shows protein stability index of 2 or higher.
**A:** condition met

**Q:** Hi, just wondering whether P23F shows protein stability index of 2 or higher.
**A:** condition met

**Q:** Hi, just wondering whether C7T shows protein stability index of 2 or higher.
**A:** condition not met

**Q:** Hi, just wondering whether D9A shows protein stability index of 2 or higher.
**A:** condition met

**Q:** Hi, just wondering whether E13R shows protein stability index of 2 or higher.
**A:** condition met

**Q:** Hi, just wondering whether H21K shows protein stability index of 2 or higher.
**A:** condition met

**Q:** Hi, just wondering whether S10D shows protein stability index of 2 or higher.
**A:** condition met

**Q:** Hi, just wondering whether Q8W shows protein stability index of 2 or higher.
**A:** condition met

**Q:** Hi, just wondering whether Q17H shows protein stability index of 2 or higher.
**A:** condition not met
